- measured-on: UniProt:Q9NTG7
- Sequence (Q9NTG7 102-399): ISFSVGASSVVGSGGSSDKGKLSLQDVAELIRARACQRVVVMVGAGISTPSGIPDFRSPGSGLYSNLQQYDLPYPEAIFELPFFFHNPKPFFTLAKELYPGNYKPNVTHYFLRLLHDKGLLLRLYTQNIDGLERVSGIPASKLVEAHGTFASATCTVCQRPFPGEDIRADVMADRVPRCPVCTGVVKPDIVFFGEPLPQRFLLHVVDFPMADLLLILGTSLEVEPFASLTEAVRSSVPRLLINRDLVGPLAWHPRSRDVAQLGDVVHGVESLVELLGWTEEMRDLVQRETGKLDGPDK
- assay-method-text: biochemical
- Type: biochemical
reported-metric: pIC50
pIC50 (log units): -log10 of the concentration in mol/L.

query: Please give measured pIC50 of the following entry: CCCCCCCCCCCCNC(=S)NCCCC[C@H](NS(C)(=O)=O)C(=O)N[C@@H](C)C(=O)N[C@@H](CCCNC(=N)N)C(N)=O [Compound 25]
result: 5.72
